target: UniProtKB P04585; test: Inhibition constants against HIV-1 protease, method of Pennington et al.; assay type: biochemical; settings: HIV-1 protease; method of Pennington et al.; read-out: Ki
pKi: −log10 of the molar value.
REPORTED_ENDPOINT: pKi

COMPOUND: COc1ccc(S(=O)(=O)N(CC(C)C)C[C@H](O)CCN(CC2CCCC2)C(=O)O[C@H]2CCOC2)cc1
REPORTED_ENDPOINT: pKi
BOUND_TYPE: <
OBSERVED: 5.00
//
COMPOUND: COc1ccc(S(=O)(=O)N(CC(O)CN2C(=O)OC[C@@H]2Cc2ccccc2)CC2CCCC2)cc1 (stereo partly shown)
REPORTED_ENDPOINT: pKi
BOUND_TYPE: =
OBSERVED: 5.92
//
COMPOUND: COc1ccc(S(=O)(=O)N(CC(C)C)C[C@@H](O)CCN(CCc2ccccc2)C(=O)OC2COC3OCCC23)cc1 (stereo partly shown)
REPORTED_ENDPOINT: pKi
BOUND_TYPE: =
OBSERVED: 5.10
//
COMPOUND: COc1ccc(S(=O)(=O)N(CC(C)C)C[C@@H](O)CCN2CCCC[C@H]2C(=O)NC(C)(C)C)cc1
REPORTED_ENDPOINT: pKi
BOUND_TYPE: =
OBSERVED: 5.80
